assay_text: qHTS assay for small molecule disruptors of the mitochondrial membrane potential - 5 hr assay (AID 651755); also: nearly all actives have a fitted effect of over 40% in size
reported_conditions: JC-1-type ratio dye; series mostly up to 92.2 µM
Results filed as inconclusive are left out. Active and inactive are the calls of the source. Calls follow the shape of the full dose curve.
readout_type: outcome

Looking up O=C(O)C(Cl)(Cl)Br , I see its outcome listed as inactive

c1ccc2c(c1)CCNC2 has a reported outcome of inactive

Please fill in: outcome reported for Cc1ccc2c(C)cccc2c1 = inactive

The reported outcome of the compound CN(C)C(=O)Nc1ccc(Cl)cc1 was inactive

// recorded outcome for Nc1ccc(Cc2ccc(N)cc2)cc1 : inactive

Next:
Entry CCN(CC)CCO , outcome reported as inactive

So, C=CCc1cc(OC)c2c(c1)OCO2 ? Its outcome was inactive

The recorded outcome for Clc1cc(Cl)c(Cl)c(Cl)c1 is inactive
